# Tested on: Escherichia coli
# ASSAY DETAILS: Antibacterial activity against Escherichia coli M15
# Format: functional

# SMILES CODE, MIC90
data = [
    ("O=C(N[C@H](CO)[C@H](O)c1ccc([N+](=O)[O-])cc1)C(Cl)Cl", "8 µg/mL"),
    ("O=c1c(-c2ccc(O)cc2)coc2cc(O)cc(O)c12", "378 µg/mL"),
    ("CC[C@H]1OC(=O)[C@H](C)[C@@H](O[C@H]2C[C@@](C)(OC)[C@@H](O)[C@H](C)O2)[C@H](C)[C@@H](O[C@@H]2O[C@H](C)C[C@H](N(C)C)[C@H]2O)[C@](C)(O)C[C@@H](C)C(=O)[C@H](C)[C@@H](O)[C@]1(C)O", "16 µg/mL"),
]
